ASSAY: Test 2: Pharmacokinetic test in rats
Format: in vivo, rat
CONDITION_CONTEXT: rat, blood, iv, 10 mg/kg, Rat-1, i.v. 10 mg/kg, 120 min; read-out: Blood concentration
RECORDED_METRIC: concentration at 2 h (ng/mL)

                               entry_smiles       recorded_metric  experimental_result
0  CN(C(=O)[C@H](Cc1ccc(C(=N)NN)cc1)NS(=O)(=O)c1ccc2ccccc2c1)C1CCCC1  concentration at 2 h                   76

----------
ASSAY: Test 2: Pharmacokinetic test in dogs
Format: in vivo, dog
CONDITION_CONTEXT: dog, blood, iv, 10 mg/kg, dogs, i.v. 10 mg/kg, 240 min; read-out: Blood concentration, Average(+error)
RECORDED_METRIC: concentration at 4 h (ng/mL)

In [3]: df
Out[3]:
                                   compound       recorded_metric  unit_tag  experimental_result
0  CN(C(=O)[C@H](Cc1ccc(C(=N)NN)cc1)NS(=O)(=O)c1ccc2ccccc2c1)C1CCCC1 [Example 1]  concentration at 4 h     ng/mL                  337

----------
ASSAY: Test 2: Pharmacokinetic test in rats
Type: in vivo, rat
CONDITION_CONTEXT: rat, blood; rats; read-out: Elimination Half-life, Average + (error)
RECORDED_METRIC: half-life

In [3]: df
Out[3]:
                                   compound  experimental_result
0  CN(C(=O)[C@H](Cc1ccc(C(=N)NN)cc1)NS(=O)(=O)c1ccc2ccccc2c1)C1CCCC1 [Example 1]               47 min

----------
ASSAY: Test 2: Pharmacokinetic test in rats
Type: in vivo, rat
CONDITION_CONTEXT: rat, blood, po, 15 mg/kg, Rat-2, oral 15 mg/kg, 5 min; read-out: Blood concentration
RECORDED_METRIC: concentration at 5 min (ng/mL)

>>> df
                               entry_smiles         recorded_metric  experimental_result
0  CN(C(=O)[C@H](Cc1ccc(C(=N)NN)cc1)NS(=O)(=O)c1ccc2ccccc2c1)C1CCCC1  concentration at 5 min                  822

----------
TARGET_SYSTEM: bovine thrombin (Bos taurus, UniProt P00735);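 further: bovine thrombin cleaving the chromogenic substrate Chromozym TH, with para-nitroaniline release tracked as absorbance change over time to give initial rates, in Tris buffer at pH 7.8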
CONDITION_CONTEXT: read-out: Inhibitory activity for thrombin, Ki; bovine thrombin, pH 7.8, initial velocity, reaction started with enzyme
pKi: −log10 of the molar value.
# binarize pKi: threshold 7 inclusive, high side 1, low side 0

                               entry_smiles                             target_system  label_class
0  CCCCN(C(=O)[C@H](Cc1ccc(C(=N)NN)cc1)NS(=O)(=O)c1ccc2ccccc2c1)C1CCCC1  bovine thrombin (Bos taurus, UniProt P00735)            0
1  CN(C(=O)[C@H](Cc1ccc(C(=N)NN)cc1)NS(=O)(=O)c1ccc2ccccc2c1)C1CC1  bovine thrombin (Bos taurus, UniProt P00735)            0
2  CCCCN(C)C(=O)[C@H](Cc1ccc(C(=N)NN)cc1)NS(=O)(=O)c1ccc2ccccc2c1  bovine thrombin (Bos taurus, UniProt P00735)            1
3  N=C(NN)c1ccc(C[C@H](NS(=O)(=O)c2ccc3ccccc3c2)C(=O)N(O)C2CCCC2)cc1  bovine thrombin (Bos taurus, UniProt P00735)            0

These measurements were taken from patent US5747535A.
